system: PC-3; experiment: Antiproliferative activity against human PC3 cells treated for 24 hrs measured after 72 hrs by MTT assay; assay type: functional, cell-based
Give measured IC50 for each item. Keep answers brief.
Unit µM implied. Number only.

Look at this molecule and give its reported IC50. CN1c2ccccc2C(=O)N2CCc3c([nH]c4ccccc34)C21 (centres undefined)
14

Same for "O=c1[nH]cc(F)c(=O)[nH]1"
23.9

Same for CN1c2ccccc2C(=O)N2CCc3c(n(CCO)c4ccccc34)C21 (centres undefined)
12.3

Same for CN1c2ccccc2C(=O)N2CCc3c(n(CCOC(=O)CCCc4ccc(N(CCCl)CCCl)cc4)c4ccccc34)C21 (centres undefined)
45.7

Same for CN1c2ccccc2C(=O)N2CCc3c(n(CCCCCCO)c4ccccc34)C21 (centres undefined)
21.5
